molecular target: human Beta-secretase (BACE), BACE1 (gene 23621) (UniProt P56817); assay: NVS_ENZ_hBACE: NovaScreen (NVS) Enzymatic Assay for human Beta-secretase (BACE) (AID 2283140);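 note: hits are inhibitors that reduce fluorescent substrate signal versus DMSO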
Sequence (P56817 whole entry, looked up): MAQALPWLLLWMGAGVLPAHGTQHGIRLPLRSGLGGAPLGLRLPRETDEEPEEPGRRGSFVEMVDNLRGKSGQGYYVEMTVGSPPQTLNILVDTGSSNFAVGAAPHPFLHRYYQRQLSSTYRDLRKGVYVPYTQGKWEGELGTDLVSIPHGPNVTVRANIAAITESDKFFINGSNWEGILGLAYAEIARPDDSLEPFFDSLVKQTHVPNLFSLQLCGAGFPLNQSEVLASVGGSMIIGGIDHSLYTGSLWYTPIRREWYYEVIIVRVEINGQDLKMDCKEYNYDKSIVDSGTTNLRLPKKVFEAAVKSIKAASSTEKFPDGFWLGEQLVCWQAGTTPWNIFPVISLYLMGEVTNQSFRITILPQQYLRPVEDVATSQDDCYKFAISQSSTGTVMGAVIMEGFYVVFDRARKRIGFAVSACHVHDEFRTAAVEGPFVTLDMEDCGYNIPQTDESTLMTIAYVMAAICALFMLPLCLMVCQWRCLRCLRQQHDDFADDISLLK
Results filed as inconclusive are left out. Active and inactive are the calls of the source. Rule for the calls: active = hit-call score of the fitted dose curve at least 0.9, where 1 is the maximum; inconclusive = response in the unintended direction; inactive = score below 0.9.
property.measured: AC50

Noted for Cc1ccc(N=C=O)cc1N=C=O : its AC50 reads 8.64 µM (active)

Kindly note the recorded AC50 for c1ccc2c(c1)-c1cccc3cccc-2c13 , which is 1.18 µM (active)

So for CC(C)(O)c1cnn2c(-c3ccc(F)c(-c4c(F)cccc4C#N)c3)cnc2n1 , the logged AC50 turned out to be 5.34 µM (active)

# molecule CN(C)[C@@H]1C(=O)C(C(N)=O)=C(O)[C@@]2(O)C(=O)C3=C(O)c4c(O)cccc4[C@@](C)(O)[C@H]3C[C@@H]12 ; its AC50 = inactive

AC50 reading for Oc1ccc2ccc3cccc4ccc1c2c34 : 8.84 µM (active)

Okay, now this molecule:
// sample O=[N+]([O-])c1ccc(Oc2ccc(Cl)cc2Cl)cc1 , its AC50 was inactive

----------
Assay: Tanguay_ZF_120hpf_TRUN_legacy: (Legacy) Oregon State University Tanguay Lab 120 Hour Post-fertilization zebrafish Assay for Truncated Body (AID 2283655)
Description: Tanguay_ZF_120hpf_legacy is a whole embryo, multiplexed endpoint assay using zebrafish larvae exposed for 120 hours post fertilization on a 96-well plate.Tanguay_ZF_120hpf_TRUN_legacy is one of one assay component(s) measured or calculated from the Tanguay_ZF_120hpf_legacy assay. […] This assay endpoint, Tanguay_ZF_120hpf_TRUN_legacy, was analyzed in the positive analysis fitting direction relative to DMSO as the negative control and baseline of activity. […]
Records with an inconclusive call do not appear. Activity calls are given as the source filed them. Rule for the calls: active = hit-call score of the fitted dose curve at least 0.9, where 1 is the maximum; inconclusive = response in the unintended direction; inactive = score below 0.9.
property.measured: outcome

Look over these answered cases.
For this compound ( CCCCCCCCCCCCCN1CC(C)OC(C)C1 (centres undefined) ), measured outcome is inactive

Entry CO[C@@H]1[C@H](OC(=O)NC(=O)CCl)CC[C@]2(CO2)[C@H]1[C@@]1(C)O[C@@H]1CC=C(C)C — recorded outcome = inactive

Reported outcome of CCCCC(CC)COC(=O)c1ccc(C(=O)OCC(CC)CCCC)c(C(=O)OCC(CC)CCCC)c1 (centres undefined) : inactive

OCCOCCO yielded outcome of inactive

Sample c1ccc(NNc2ccccc2)cc1 ; outcome observed: inactive

outcome measured on CS(=O)(=O)NC(=O)c1cc(Oc2ccc(C(F)(F)F)cc2Cl)ccc1[N+](=O)[O-] = inactive

response.value for ClCCOCCCl (field: outcome) = inactive

ClC1=C(Cl)[C@]2(Cl)[C@H]3[C@H]([C@@H]4C=C[C@H]3C4)[C@@]1(Cl)C2(Cl)Cl has a reported outcome of inactive

New cases:
The compound listed as CC(C)(O)c1cnn2c(-c3ccc(F)c(-c4c(F)cccc4C#N)c3)cnc2n1 has a reported outcome of inactive

----------
read-out: Monocyte Chemoattractant Protein-1 (MCP1), CCL2 (gene 6347); experiment: BSK_CASM3C_MCP1: BioMAP Diversity Plus: CASM3C Assay for Monocyte Chemoattractant Protein-1 (MCP1) Biomarker Activity (AID 2283046); details: primary human coronary artery smooth muscle cells; actives raise or lower the signal;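 note: MCP-1 level quantified by ELISA 24 h after dosing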
Calls of active or inactive are those of the source. Rule for the calls: active = hit-call score of the fitted dose curve at least 0.9, where 1 is the maximum; inactive = score below 0.9.
Select the correct class. Options are active, inactive and nothing else.

// known answers, use as guide
Record request — test call for O=C1CCCO1
inactive

What is the recorded call for this molecule in the test? c1ccc(C2CO2)cc1 (stereo not drawn)
inactive

Lab log entry: CN(C)c1ccccc1 — outcome as called in the assay?
inactive

Next:
Which outcome was entered for the molecule O=[N+]([O-])C(Br)(CO)CO in this test?
active

Returns: the outcome recorded for CCCCOC(=O)c1ccccc1C(=O)OCc1ccccc1 in this assay.
inactive

Hi, do you know how Cc1cc(N=Nc2ccccc2C)ccc1N came out in this test?
inactive

# outcome recorded in this test, key = CCCCCCCCCCCCCN1CC(C)OC(C)C1 (stereo not drawn)
inactive

Field: outcome | Entry: Cc1cccc(N)c1N
inactive
